- system.tested: UniProt:P00533
- Sequence (P00533 25-1210): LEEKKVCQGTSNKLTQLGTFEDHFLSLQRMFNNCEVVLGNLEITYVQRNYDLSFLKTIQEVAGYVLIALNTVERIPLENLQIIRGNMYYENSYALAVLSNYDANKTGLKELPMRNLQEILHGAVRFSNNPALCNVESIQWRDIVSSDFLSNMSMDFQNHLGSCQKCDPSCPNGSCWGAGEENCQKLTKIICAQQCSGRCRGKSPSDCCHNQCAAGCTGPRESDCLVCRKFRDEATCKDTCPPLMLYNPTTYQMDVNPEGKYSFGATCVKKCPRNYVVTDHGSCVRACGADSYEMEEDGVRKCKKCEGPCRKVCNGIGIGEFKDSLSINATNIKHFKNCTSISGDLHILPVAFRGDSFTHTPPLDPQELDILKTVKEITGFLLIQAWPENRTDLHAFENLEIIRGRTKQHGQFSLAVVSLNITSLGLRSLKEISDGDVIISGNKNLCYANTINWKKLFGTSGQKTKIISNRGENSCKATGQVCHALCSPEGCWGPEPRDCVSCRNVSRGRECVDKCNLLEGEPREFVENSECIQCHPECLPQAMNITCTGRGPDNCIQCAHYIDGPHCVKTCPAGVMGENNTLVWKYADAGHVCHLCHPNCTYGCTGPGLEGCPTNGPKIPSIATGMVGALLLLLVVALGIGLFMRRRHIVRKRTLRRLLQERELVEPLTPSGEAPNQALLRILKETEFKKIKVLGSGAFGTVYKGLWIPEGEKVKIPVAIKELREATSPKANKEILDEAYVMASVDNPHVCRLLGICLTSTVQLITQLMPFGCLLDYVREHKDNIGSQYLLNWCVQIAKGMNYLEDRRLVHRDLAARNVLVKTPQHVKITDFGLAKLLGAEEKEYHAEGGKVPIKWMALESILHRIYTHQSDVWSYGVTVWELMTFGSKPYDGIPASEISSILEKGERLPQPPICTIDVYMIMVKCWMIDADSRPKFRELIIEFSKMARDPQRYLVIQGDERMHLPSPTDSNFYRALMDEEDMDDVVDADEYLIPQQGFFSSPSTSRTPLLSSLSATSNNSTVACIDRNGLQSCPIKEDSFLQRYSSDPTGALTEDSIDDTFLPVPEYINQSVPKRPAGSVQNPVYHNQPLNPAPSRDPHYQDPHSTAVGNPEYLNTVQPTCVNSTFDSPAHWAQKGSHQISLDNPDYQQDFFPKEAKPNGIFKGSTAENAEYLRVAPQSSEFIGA
- procedure.summary: HTRF enzyme inhibitory assay, EGFR WT
Quick reference for IC50 among some compounds
parameter.measured: IC50 (nM)

1) Cn1c(=O)c2c(-c3ccc(Cl)cc3)c(C(=O)NN)c(N)nc2n(C)c1=O    212
2) CCOC(=O)c1c(N)nc2c(c1-c1ccc(Cl)cc1)c(=O)n(C)c(=O)n2C    93

----------
- System: HeLa, HepG-2, and MCF-7
- procedure.summary: MTT cytotoxicity, range over the cancer cell panel
- condition.summary: read-out: IC50 across HeLa, HepG-2 and MCF-7; range over all examined cancer cell lines
parameter.measured: IC50

1) Cn1c(=O)c2c(-c3ccc(Cl)cc3)c(-c3nn(CCc4nn[nH]n4)c(=S)o3)c(N)nc2n(C)c1=O    > 50 µM
2) Cn1c(=O)c2c(-c3ccc(Cl)cc3)c(C3=NN=C4N=CNC(=O)C43)c(N)nc2n(C)c1=O (stereo not drawn)    > 50 µM
3) Cn1c(=O)c2c(-c3ccc(Cl)cc3)c(C(=O)NC(=S)NN)c(N)nc2n(C)c1=O    > 84 µM
4) CC1=NN(C(=S)NC(=O)c2c(N)nc3c(c2-c2ccc(Cl)cc2)c(=O)n(C)c(=O)n3C)C(=O)C1    35 to 65 µM
5) Cn1c(=O)c2c(-c3ccc(Cl)cc3)c(-c3nnc(S)n3N)c(N)nc2n(C)c1=O    14 to 26 µM
6) Cc1cc(C)n(C(=O)c2c(N)nc3c(c2-c2ccc(Cl)cc2)c(=O)n(C)c(=O)n3C)n1    24 to 32 µM
7) Cn1c(=O)c2c(-c3ccc(Cl)cc3)c(C(=O)NN)c(N)nc2n(C)c1=O    7.54 to 12.9 µM
8) CCOC(=O)c1c(N)nc2c(c1-c1ccc(Cl)cc1)c(=O)n(C)c(=O)n2C    3.98 to 6.29 µM
9) Cn1c(=O)c2c(-c3ccc(Cl)cc3)c(-c3nnc4sc(S)nn34)c(N)nc2n(C)c1=O    40 to 52 µM
10) Cc1cc(C)n(-c2c[nH]nc2NC(=O)c2c(N)nc3c(c2-c2ccc(Cl)cc2)c(=O)n(C)c(=O)n3C)n1    28 to 36 µM
11) Cn1c(=O)c2c(-c3ccc(Cl)cc3)c(C(=O)Nc3n[nH]cc3NN)c(N)nc2n(C)c1=O    14 to 26 µM
12) Cn1c(=O)c2c(-c3ccc(Cl)cc3)c(-c3nnc(S)o3)c(N)nc2n(C)c1=O    9.72 to 17.5 µM

----------
- procedure.summary: in vitro
- condition.summary: human, WI-38 normal lung fibroblast cells
Quick reference for IC50 at 48 h among some compounds
parameter.measured: IC50 at 48 h

1) Cn1c(=O)c2c(-c3ccc(Cl)cc3)c(-c3nnc4sc(S)nn34)c(N)nc2n(C)c1=O [Compound 15]    41.2 µM
2) CC1=NN(C(=S)NC(=O)c2c(N)nc3c(c2-c2ccc(Cl)cc2)c(=O)n(C)c(=O)n3C)C(=O)C1 [Compound 16]    57.6 µM
3) Cc1cc(C)n(-c2c[nH]nc2NC(=O)c2c(N)nc3c(c2-c2ccc(Cl)cc2)c(=O)n(C)c(=O)n3C)n1 [Compound 13]    10.7 µM
4) Cn1c(=O)c2c(-c3ccc(Cl)cc3)c(C(=O)Nc3n[nH]cc3NN)c(N)nc2n(C)c1=O [Compound 3]    52.8 µM
5) CCOC(=O)c1c(N)nc2c(c1-c1ccc(Cl)cc1)c(=O)n(C)c(=O)n2C [Compound 1]    81.7 µM

----------
E. faecalis ATCC29212 measurements of MIC, listed per entry.
parameter.measured: MIC (µg/mL)

1) CC1=NN(C(=S)NC(=O)c2c(N)nc3c(c2-c2ccc(Cl)cc2)c(=O)n(C)c(=O)n3C)C(=O)C1    100
2) CCOC(=O)c1c(N)nc2c(c1-c1ccc(Cl)cc1)c(=O)n(C)c(=O)n2C    100
3) Cn1c(=O)c2c(-c3ccc(Cl)cc3)c(C3=NN=C4N=CN=C(N)C43)c(N)nc2n(C)c1=O (stereo not shown)    100

----------
- System: breast carcinoma (MCF-7)
- procedure.summary: MTT cytotoxicity assay, MCF-7
- condition.summary: IC50 WI-38 / IC50 MCF-7
Entries are grouped by SI MCF-7 into these classes: low value = under 0.4, medium value = from 0.4 up to 2, high value = 2 and over

1. Cn1c(=O)c2c(-c3ccc(Cl)cc3)c(-c3nnc4n3N=C(Cl)CS4)c(N)nc2n(C)c1=O [Compound 14]    low value
2. Cn1c(=O)c2c(-c3ccc(Cl)cc3)c(C3=NN=C4N=CN=C(N)C43)c(N)nc2n(C)c1=O (centres unmarked) [Compound 12]    low value
3. Cn1c(=O)c2c(-c3ccc(Cl)cc3)c(C(=O)NN)c(N)nc2n(C)c1=O [Compound 2]    high value
4. Cn1c(=O)c2c(-c3ccc(Cl)cc3)c(-c3nnc(S)n3N)c(N)nc2n(C)c1=O [Compound 4]    medium value
5. Cc1cc(C)n(-c2c[nH]nc2NC(=O)c2c(N)nc3c(c2-c2ccc(Cl)cc2)c(=O)n(C)c(=O)n3C)n1 [Compound 13]    low value
6. Cn1c(=O)c2c(-c3ccc(Cl)cc3)c(-c3nn(CCc4nn[nH]n4)c(=S)o3)c(N)nc2n(C)c1=O [Compound 10]    medium value
7. CCOC(=O)c1c(N)nc2c(c1-c1ccc(Cl)cc1)c(=O)n(C)c(=O)n2C [Compound 1]    high value
8. CC1=NN(C(=S)NC(=O)c2c(N)nc3c(c2-c2ccc(Cl)cc2)c(=O)n(C)c(=O)n3C)C(=O)C1 [Compound 16]    medium value
9. Cn1c(=O)c2c(-c3ccc(Cl)cc3)c(-c3nnc4sc(S)nn34)c(N)nc2n(C)c1=O [Compound 15]    medium value
10. Cn1c(=O)c2c(-c3ccc(Cl)cc3)c(C(=O)Nc3n[nH]cc3NN)c(N)nc2n(C)c1=O [Compound 3]    high value
11. Cc1cc(C)n(C(=O)c2c(N)nc3c(c2-c2ccc(Cl)cc2)c(=O)n(C)c(=O)n3C)n1 [Compound 6]    medium value
12. Cn1c(=O)c2c(-c3ccc(Cl)cc3)c(-c3nnc(S)o3)c(N)nc2n(C)c1=O [Compound 7]    high value
13. Cn1c(=O)c2c(-c3ccc(Cl)cc3)c(C3=NN=C(N)C3C#N)c(N)nc2n(C)c1=O (centres unmarked) [Compound 8]    low value

----------
- procedure.summary: in vitro
- condition.summary: human, WI-38 normal lung fibroblast cells
parameter.measured: IC50 at 48 h (µM)

1. Cc1cc(C)n(C(=O)c2c(N)nc3c(c2-c2ccc(Cl)cc2)c(=O)n(C)c(=O)n3C)n1    38.4
2. Cn1c(=O)c2c(-c3ccc(Cl)cc3)c(-c3nnc4n3N=C(Cl)CS4)c(N)nc2n(C)c1=O    22.5
3. C#Cc1cccc(Nc2ncnc3cc(OCCOC)c(OCCOC)cc23)c1 [Erlotinib, erlotinib, reference compound]    78.3
